Data provenance is patent US9618524B2.

Target: T1, Abeta-42 plaque particles (Homo sapiens, UniProt P05067)
T1 construct: Abeta 1-42
Assay: Mass spectroscopy proteomics, semi-quantitative binding affinity of serum proteins (plaqueproteome, Table 2)
Settings: higher number = stronger affinity
I'd appreciate it if you could supply Semi-quantitative analysis of proteins binding to different plaque particles: Abeta-42 values for the items below.
Just the number, please.

For record Ig heavy chain V-III region WEA (protein) EVQLVESGGGLVQPGGSLRLSCAASGFTFSSYEMNWVRQAPGKGLEWVSYISSSGSTIYYADSVKGRFTISRDNAKNSLYLQMNSLRAEDTAVYYCAR the listed Semi-quantitative analysis of proteins binding to different plaque particles: Abeta-42 is 2

For record CD5 antigen-like (protein) SPSGVRLVGGLHRCEGRVEVEQKGQWGTVCDDGWDIKDVAVLCRELGCGAASGTPSGILYEPPAEKEQKVLIQSVSCTGTEDTLAQCEQEEVYDCSHDEDAGASCENPESSFSPVPEGVRLADGPGHCKGRVEVKHQNQWYTVCQTGWSLRAAKVVCRQLGCGRAVLTQKRCNKHAYGRKPIWLSQMSCSGREATLQDCPSGPWGKNTCNHDEDTWVECEDPFDLRLVGGDNLCSGRLEVLHKGVWGSVCDDNWGEKEDQVVCKQLGCGKSLSPSFRDRKCYGPGVGRIWLDNVRCSGEEQSLEQCQHRFWGFHDCTHQEDVAVICSG the listed Semi-quantitative analysis of proteins binding to different plaque particles: Abeta-42 is 4

For record Apolipoprotein A-IV (protein) EVSADQVATVMWDYFSQLSNNAKEAVEHLQKSELTQQLNALFQDKLGEVNTYAGDLQKKLVPFATELHERLAKDSEKLKEEIGKELEELRARLLPHANEVSQKIGDNLRELQQRLEPYADQLRTQVSTQAEQLRRQLTPYAQRMERVLRENADSLQASLRPHADELKAKIDQNVEELKGRLTPYADEFKVKIDQTVEELRRSLAPYAQDTQEKLNHQLEGLTFQMKKNAEELKARISASAEELRQRLAPLAEDVRGNLRGNTEGLQKSLAELGGHLDQQVEEFRRRVEPYGENFNKALVQQMEQLRQKLGPHAGDVEGHLSFLEKDLRDKVNSFFSTFKEKESQDKTLSLPELEQQQEQQQEQQQEQVQMLAPLES the listed Semi-quantitative analysis of proteins binding to different plaque particles: Abeta-42 is 5

For record Serpin B3 (protein) MNSLSEANTKFMFDLFQQFRKSKENNIFYSPISITSALGMVLLGAKDNTAQQIKKVLHFDQVTENTTGKAATYHVDRSGNVHHQFQKLLTEFNKSTDAYELKIANKLFGEKTYLFLQEYLDAIKKFYQTSVESVDFANAPEESRKKINSWVESQTNEKIKNLIPEGNIGSNTTLVLVNAIYFKGQWEKKFNKEDTKEEKFWPNKNTYKSIQMMRQYTSFHFASLEDVQAKVLEIPYKGKDLSMIVLLPNEIDGLQKLEEKLTAEKLMEWTSLQNMRETRVDLHLPRFKVEESYDLKDTLRTMGMVDIFNGDADLSGMTGSRGLVLSGVLHKAFVEVTEEGAEAAAATAVVGFGSSPTSTNEEFHCNHPFLFFIRQNKTNSILFYGRFSSP the listed Semi-quantitative analysis of proteins binding to different plaque particles: Abeta-42 is 2

For record Protein AMBP (protein) GPVPTPPDNIQVQENFNISRIYGKWYNLAIGSTCPWLKKIMDRMTVSTLVLGEGATEAEISMTSTRWRKGVCEETSGAYEKTDTDGKFLYHKSKWNITMESYVVHTNYDEYAIFLTKKFSRHHGPTITAKLYGRAPQLRETLLQDFRVVAQGVGIPEDSIFTMADRGECVPGEQEPEPILIPRVRRAVLPQEEEGSGGGQLVTEVTKKEDSCQLGYSAGPCMGMTSRYFYNGTSMACETFQYGGCMGNGNNFVTEKECLQTCRTVAACNLPIVRGPCRAFIQLWAFDAVKGKCVLFPYGGCQGNGNKFYSEKECREYCGVPGDGDEELLRFSN the listed Semi-quantitative analysis of proteins binding to different plaque particles: Abeta-42 is 5

For record Isoform 2 of C4b-binding protein beta chain (protein) ASDEHCPELPPVDNSIFVAKEVEGQILGTYVCIKGYHLVGKKTLFCNASKEWDNTTTECRLGHCPDPVLVNGEFSSSGPVNVSDKITFMCNDHYILKGSNRSQCLEDHTWAPPFPICKSRDCDPPGNPVHGYFEGNNFTLGSTISYYCEDRYYLVGVQEQQCVDGEWSSALPVCKLIQEAPKPECEKALLAFQESKNLCEAMENFMQQLKESGMTMEELKYSLELKKAELKAKLL the listed Semi-quantitative analysis of proteins binding to different plaque particles: Abeta-42 is 0

For record Beta-2-glycoprotein 1 (protein) GRTCPKPDDLPFSTVVPLKTFYEPGEEITYSCKPGYVSRGGMRKFICPLTGLWPINTLKCTPRVCPFAGILENGAVRYTTFEYPNTISFSCNTGFYLNGADSAKCTEEGKWSPELPVCAPIICPPPSIPTFATLRVYKPSAGNNSLYRDTAVFECLPQHAMFGNDTITCTTHGNWTKLPECREVKCPFPSRPDNGFVNYPAKPTLYYKDKATFGCHDGYSLDGPEEIECTKLGNWSAMPSCKASCKVPVKKATVVYQGERVKIQEKFKNGMLHGDKVSFFCKNKEKKCSYTEDAQCIDGTIEVPKCFKEHSSLAFWKTDASDVKPC the listed Semi-quantitative analysis of proteins binding to different plaque particles: Abeta-42 is 4

For record Platelet basic protein (protein) SSTKGQTKRNLAKGKEESLDSDLYAELRCMCIKTTSGIHPKNIQSLEVIGKGTHCNQVEVIATLKDGRKICLDPDAPRIKKIVQKKLAGDESAD the listed Semi-quantitative analysis of proteins binding to different plaque particles: Abeta-42 is 0

For record Caspase-14 (protein) MSNPRSLEEEKYDMSGARLALILCVTKAREGSEEDLDALEHMFRQLRFESTMKRDPTAEQFQEELEKFQQAIDSREDPVSCAFVVLMAHGREGFLKGEDGEMVKLENLFEALNNKNCQALRAKPKVYIIQACRGEQRDPGETVGGDEIVMVIKDSPQTIPTYTDALHVYSTVEGYIAYRHDQKGSCFIQTLVDVFTKRKGHILELLTEVTRRMAEAELVQEGKARKTNPEIQSTLRKRLYLQ the listed Semi-quantitative analysis of proteins binding to different plaque particles: Abeta-42 is 5
